Target: UniProtKB P23975
Sequence (P23975 whole entry): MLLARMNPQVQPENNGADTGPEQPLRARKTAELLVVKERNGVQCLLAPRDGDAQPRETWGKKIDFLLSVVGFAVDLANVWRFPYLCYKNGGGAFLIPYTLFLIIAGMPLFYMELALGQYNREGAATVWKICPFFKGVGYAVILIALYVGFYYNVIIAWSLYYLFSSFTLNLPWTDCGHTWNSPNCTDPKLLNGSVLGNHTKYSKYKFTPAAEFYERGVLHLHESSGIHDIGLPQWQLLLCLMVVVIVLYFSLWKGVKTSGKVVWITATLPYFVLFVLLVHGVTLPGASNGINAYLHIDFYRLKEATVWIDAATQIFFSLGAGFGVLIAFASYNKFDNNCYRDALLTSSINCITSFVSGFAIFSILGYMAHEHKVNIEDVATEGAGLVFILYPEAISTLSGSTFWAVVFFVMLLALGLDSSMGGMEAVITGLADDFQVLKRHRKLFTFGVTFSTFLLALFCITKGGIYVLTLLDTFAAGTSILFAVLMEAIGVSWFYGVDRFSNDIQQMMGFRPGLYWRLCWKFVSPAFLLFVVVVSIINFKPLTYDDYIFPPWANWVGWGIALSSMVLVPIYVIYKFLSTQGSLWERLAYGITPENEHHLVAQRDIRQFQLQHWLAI
Assay: On the day of the experiment, the cells were removed from −80° C. or liquid nitrogen and thawed in a room temperature water bath. The cells were dilute to about 1-2E+06 with Freestyle medium. A 1 mL sample (1:2 dilution) was prepared, and the cells were counted. The cells were spun at 1100 rpm for 5 minutes, and the medium was aspirated off. The cells were resuspend in medium at 1.5E+06 cells/mL for about 60,000 cells per well. 40 μL of cells were dispensed per well in the Biocoat plates. The plates were spun at 1100 rpm for 1 minute to improve homogeneity of the cell layer and were incubated at 37° C. for a minimum of 3 hours.
pKi: −log10 of the molar value.

{"columns": ["molecule", "assayed-target", "pKi"],
 "data": [
  ["CNCC(c1ccc(F)c(Cl)c1)[C@H](O)c1ccccc1 (stereo partly specified)", "UniProtKB P23975", 7.99]
]}

----------
Molecular target: Sodium-dependent dopamine transporter (Homo sapiens, UniProt Q01959)
Sequence (Q01959 whole entry): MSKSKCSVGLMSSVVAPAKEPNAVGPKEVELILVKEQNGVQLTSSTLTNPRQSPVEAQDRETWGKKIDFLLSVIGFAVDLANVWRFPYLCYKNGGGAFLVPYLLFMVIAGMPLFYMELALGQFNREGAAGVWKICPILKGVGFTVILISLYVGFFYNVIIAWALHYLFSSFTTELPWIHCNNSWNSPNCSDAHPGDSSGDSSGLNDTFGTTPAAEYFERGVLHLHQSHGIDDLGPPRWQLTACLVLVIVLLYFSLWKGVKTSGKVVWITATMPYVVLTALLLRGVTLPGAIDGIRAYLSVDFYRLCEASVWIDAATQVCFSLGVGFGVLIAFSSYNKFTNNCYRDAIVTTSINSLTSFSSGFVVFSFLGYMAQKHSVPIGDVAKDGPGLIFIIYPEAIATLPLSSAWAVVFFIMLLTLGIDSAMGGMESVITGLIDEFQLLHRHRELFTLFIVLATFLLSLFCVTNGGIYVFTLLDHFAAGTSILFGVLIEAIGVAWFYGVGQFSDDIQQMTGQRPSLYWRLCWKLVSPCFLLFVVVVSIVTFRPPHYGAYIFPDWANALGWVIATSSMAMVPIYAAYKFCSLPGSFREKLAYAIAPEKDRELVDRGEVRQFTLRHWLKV
Assay: On the day of the experiment, the cells were removed from −80° C. or liquid nitrogen and thawed in a room temperature water bath. The cells were dilute to about 1-2E+06 with Freestyle medium. A 1 mL sample (1:2 dilution) was prepared, and the cells were counted. The cells were spun at 1100 rpm for 5 minutes, and the medium was aspirated off. The cells were resuspend in medium at 1.5E+06 cells/mL for about 60,000 cells per well. 40 μL of cells were dispensed per well in the Biocoat plates. […] The neurotransmitter transporter dye was prepared in AB prior to use.
pKi: −log10 of the molar value.

{"columns": ["molecule", "pKi"],
 "data": [
  ["CNCC(c1ccc(F)c(Cl)c1)[C@H](O)c1ccccc1 (stereo partly specified)", 7.25]
]}
